Record form. Attribute: EC1.5. Fill in for each entry.
- assayed-system: UniProtKB Q96EB6
- assay: Mass spectrometry based SIRT1 deacetylase activation assay (acetylated p53-derived peptide substrate)
- Format: biochemical
- stated-conditions: 0.5 μM peptide substrate, 120 μM βNAD+, 10 nM SIRT1, 25 min at 25° C., read-out: EC1.5

Exercise: Missing value: EC1.5, UniProtKB Q96EB6, entry `Cc1nc(-c2ccccc2)sc1-c1nc2c(C(=O)Nc3nccs3)cccc2[nH]1` . Fill in?
Solution: < 1000 nM

Exercise: Also `Cc1cc(NC(=O)c2cccc3[nH]c(-c4ccccc4OCCN4CCOCC4)nc23)n(C)n1` , if possible.
Solution: 1000 to 25000 nM

Exercise: Also O=C(Nc1nccs1)c1cccc2[nH]c(-c3ccccc3OC3CCNC3)nc12 (centres unmarked) ?
Solution: 1000 to 25000 nM

Exercise: Now this one: `CC1(C)Cc2cc(-c3nc4c(C(=O)Nc5nccs5)cccc4[nH]3)ccc2O1`
Solution: 1000 to 25000 nM

Exercise: Entry `Cc1nc(N2CCOCC2)sc1-c1nc2c(C(=O)Nc3cccnc3)cccc2[nH]1` please
Solution: < 1000 nM

Exercise: Here is the next molecule: `Cc1nc(NC(=O)c2cccc3[nH]c(-c4ccccc4OCCN4CCOCC4)nc23)sc1C`
Solution: 1000 to 25000 nM

Exercise: Another molecule to look at: O=C(Nc1nccs1)c1cccc2[nH]c(-c3ccc(OC4CCNC4)cc3)nc12 (centres unmarked)
Solution: < 1000 nM

Exercise: Please answer likewise for `Cc1cnc(NC(=O)c2cccc3[nH]c(-c4ccc(OC5CCNCC5)cc4)nc23)s1`
Solution: < 1000 nM

* * *

- assayed-system: SIRT1 (Homo sapiens, UniProt Q96EB6)
- Sequence (Q96EB6 whole entry): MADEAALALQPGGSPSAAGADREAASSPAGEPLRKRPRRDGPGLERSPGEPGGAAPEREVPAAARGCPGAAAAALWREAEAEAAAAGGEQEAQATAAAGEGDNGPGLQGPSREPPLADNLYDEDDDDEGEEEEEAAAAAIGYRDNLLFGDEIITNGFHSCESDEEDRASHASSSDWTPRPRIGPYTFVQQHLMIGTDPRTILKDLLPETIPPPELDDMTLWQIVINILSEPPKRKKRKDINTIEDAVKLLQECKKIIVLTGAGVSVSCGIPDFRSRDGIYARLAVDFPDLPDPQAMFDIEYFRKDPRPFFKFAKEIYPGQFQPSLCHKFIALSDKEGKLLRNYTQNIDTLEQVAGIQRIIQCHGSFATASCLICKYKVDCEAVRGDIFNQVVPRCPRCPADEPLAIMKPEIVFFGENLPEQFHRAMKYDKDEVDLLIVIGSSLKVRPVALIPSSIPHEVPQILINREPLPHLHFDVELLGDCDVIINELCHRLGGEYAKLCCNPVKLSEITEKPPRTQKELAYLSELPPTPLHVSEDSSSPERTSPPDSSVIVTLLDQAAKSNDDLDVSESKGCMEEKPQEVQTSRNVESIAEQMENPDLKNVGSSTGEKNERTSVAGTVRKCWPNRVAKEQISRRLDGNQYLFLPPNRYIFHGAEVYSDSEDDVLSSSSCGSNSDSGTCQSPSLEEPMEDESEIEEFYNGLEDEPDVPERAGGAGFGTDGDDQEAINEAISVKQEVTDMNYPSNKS
- assay: Mass spectrometry based SIRT1 deacetylase activation assay (acetylated p53-derived peptide substrate)
- Format: biochemical
assay-readout: EC1.5

compound="Cc1nc(-c2ccccc2)c(-c2nc3c(C(=O)Nc4cccnc4)cccc3[nH]2)s1 [Compound 370]" assay_readout=EC1.5 test_result="A (EC1.5<1.0 uM)"
compound="Cc1nc(NC(=O)c2cccc3[nH]c(-c4ccc(F)cc4C(F)(F)F)nc23)sc1C [Compound 358]" assay_readout=EC1.5 test_result="A (EC1.5<1.0 uM)"

* * *

- assayed-system: SIRT1 (Homo sapiens, UniProt Q96EB6)
- assay: Mass spectrometry based SIRT1 deacetylase activation assay (acetylated p53-derived peptide substrate)
- Assay type: biochemical
- stated-conditions: 0.5 μM peptide substrate, 120 μM βNAD+, 10 nM SIRT1, 25 minutes at 25° C.
assay-readout: EC1.5

Below, each entry is followed by its recorded EC1.5 result.
compound="O=C(Nc1cccnn1)c1cc(N2CCOCC2)cc2[nH]c(-c3ccc(F)cc3C(F)F)nc12 [Compound 752]" test_result="A (EC1.5<1.0 uM)"
compound="O=C(Nc1ccccn1)c1cncc2nc(-c3ccc(OC[C@H](O)CO)cc3C(F)F)[nH]c12 [Compound 810]" test_result="A (EC1.5<1.0 uM)"
compound="O=C(Nc1nccs1)c1cc(N2CCOCC2)cc2[nH]c(-c3ccc(Cl)cc3C(F)(F)F)nc12 [Compound 640]" test_result="A (EC1.5<1.0 uM)"
compound="O=C(Nc1cccc(OCC(O)CO)c1)c1cccc2[nH]c(-c3cc(F)ccc3C(F)(F)F)nc12 (stereo not shown) [Compound 680]" test_result="A (EC1.5<1.0 uM)"
compound="O=C(Nc1ccc(OC[C@@H](O)CO)cc1)c1cccc2[nH]c(-c3cccc(N4CCOCC4)c3)nc12 [Compound 787]" test_result="A (EC1.5<1.0 uM)"

Exercise: Quick one: EC1.5 for Cc1cccc(-c2nc3c(C(=O)Nc4nccs4)cccc3[nH]2)c1OCCN1CCOCC1 [Compound 626] ?
Solution: B (EC1.5 1-25 uM)

Exercise: Moving on to O=C(Nc1nccs1)c1cccc2[nH]c(-c3cc(N4CC[C@H](F)C4)ccc3C(F)(F)F)nc12 [Compound 665]
Solution: A (EC1.5<1.0 uM)

Exercise: And what about the compound O=C(Nc1nc(CN2CCOCC2)cs1)c1cccc2[nH]c(-c3cc(F)ccc3C(F)(F)F)nc12 [Compound 701] ?
Solution: A (EC1.5<1.0 uM)

Exercise: Now give it for O=C(Nc1cccc(OC[C@H](O)CO)c1)c1cccc2[nH]c(-c3cccc(F)c3)nc12 [Compound 781] too.
Solution: A (EC1.5<1.0 uM)

Exercise: Moving on to O=C(Nc1cccnc1)c1cc(N2CCOCC2)cc2[nH]c(-c3ccc(F)cc3C(F)F)nc12 [Compound 751]
Solution: A (EC1.5<1.0 uM)

Exercise: Also O=C(Nc1nccs1)c1cccc2[nH]c(-c3ccc(N4CC[C@@H](F)C4)cc3C(F)(F)F)nc12 [Compound 608] ?
Solution: A (EC1.5<1.0 uM)

Exercise: What would you report for O=C(Nc1ccccn1)c1cc(F)cc2nc(-c3ccc(F)cc3C(F)F)[nH]c12 [Compound 826] ?
Solution: A (EC1.5<1.0 uM)

Exercise: Again, but for O=C(Nc1ccccn1)c1cccc2[nH]c(-c3cc(N4CC[C@@H](F)C4)ccc3C(F)(F)F)nc12 [Compound 668]
Solution: A (EC1.5<1.0 uM)

Exercise: Entry to check: O=C(Nc1nc(CN2CCOCC2)cs1)c1cccc2[nH]c(-c3ccc(F)cc3C(F)F)nc12 [Compound 846]
Solution: A (EC1.5<1.0 uM)

Exercise: Same read-out for O=C(Nc1cccc(OC2CCNCC2)c1)c1cccc2[nH]c(-c3ccc(F)cc3C(F)(F)F)nc12 [Compound 661] ?
Solution: A (EC1.5<1.0 uM)

Exercise: Same question, O=C(Nc1nccs1)c1cccc2[nH]c(-c3ccccc3OCCN3CCC(F)(F)C3)nc12 [Compound 614] this time
Solution: C (EC1.5 >25 uM)

Exercise: Would you mind doing O=C(Nc1ccccn1)c1cccc2[nH]c(-c3ccc(N4CCCC4)cc3C(F)(F)F)nc12 [Compound 605] as well?
Solution: B (EC1.5 1-25 uM)

Exercise: Query O=C(Nc1cccnc1)c1cc(N2CCOCC2)cc2[nH]c(-c3ccc(Cl)cc3C(F)(F)F)nc12 [Compound 642] next
Solution: A (EC1.5<1.0 uM)

Exercise: And O=C(Nc1ccncn1)c1cccc2[nH]c(-c3ccc(N4CCCC4)cc3C(F)F)nc12 [Compound 776] ?
Solution: A (EC1.5<1.0 uM)

Exercise: For O=C(Nc1nccs1)c1cc(N2CCOCC2)cc2[nH]c(-c3cc(F)ccc3C(F)(F)F)nc12 [Compound 644] then?
Solution: A (EC1.5<1.0 uM)

Exercise: Now this one: O=C(Nc1nccs1)c1cc(F)cc2nc(-c3ccc(Cl)cc3C(F)F)[nH]c12 [Compound 821]
Solution: A (EC1.5<1.0 uM)

Exercise: Record: O=C(Nc1ccc(OC[C@H](O)CO)cc1)c1cccc2[nH]c(-c3cccnc3)nc12 [Compound 797]
Solution: A (EC1.5<1.0 uM)

Exercise: Record: O=C(Nc1nc(CN2CCOCC2)cs1)c1cccc2[nH]c(-c3cccnc3)nc12 [Compound 795]
Solution: C (EC1.5 >25 uM)

* * *

- assayed-system: SIRT1 (Homo sapiens, UniProt Q96EB6)
- assay: Mass spectrometry based SIRT1 deacetylase activation assay (acetylated p53-derived peptide substrate)
- Assay type: biochemical
assay-readout: EC1.5

Answered cases to consult:
compound="O=C(Nc1nccs1)c1cccc2[nH]c(-c3ccc(N4CCOCC4)cc3)nc12 [Compound 268]" test_result="A (EC1.5<1.0 uM)"
compound="Cc1nc(-c2ccccc2)c(-c2nc3c(C(=O)Nc4nccs4)cccc3[nH]2)s1 [Compound 368]" test_result="A (EC1.5<1.0 uM)"
compound="Cc1nnc(NC(=O)c2cccc3[nH]c(-c4cccc(C(F)(F)F)c4)nc23)s1 [Compound 232]" test_result="B (EC1.5 1-25 uM)"
compound="O=C(Nc1nccs1)c1cccc2[nH]c(-c3ccc(C(F)(F)F)cc3)nc12 [Compound 209]" test_result="C (EC1.5 >25 uM)"
compound="O=C(Nc1nccs1)c1cccc2[nH]c(-c3ccc(-c4ccccc4)cc3)nc12 [Compound 223]" test_result="C (EC1.5 >25 uM)"

Exercise: Fill in: EC1.5 of O=C(Nc1nccs1)c1cccc2[nH]c(-c3c(F)cccc3F)nc12 [Compound 265] is ___
Solution: B (EC1.5 1-25 uM)

Exercise: Continue with O=C(Nc1nccs1)c1cccc2[nH]c(-c3cccnc3Cl)nc12 [Compound 245]
Solution: B (EC1.5 1-25 uM)

Exercise: Next compound up: O=C(Nc1nccs1)c1cccc2[nH]c(-c3nccs3)nc12 [Compound 238]
Solution: B (EC1.5 1-25 uM)

* * *

- assayed-system: SIRT1 (Homo sapiens, UniProt Q96EB6)
- assay: Mass spectrometry based SIRT1 deacetylase activation assay (acetylated p53-derived peptide substrate)
- Assay type: biochemical
assay-readout: EC1.5

molecule="O=C(Nc1nccs1)c1cccc2[nH]c(-c3ccnc(N4CCOCC4)c3)nc12 [Compound 269]" assayed_system="SIRT1 (Homo sapiens, UniProt Q96EB6)" test_result="A (EC1.5<1.0 uM)"
molecule="O=C(Nc1cccnc1)c1cccc2[nH]c(-c3cccc(N4CCOCC4)n3)nc12 [Compound 389]" assayed_system="SIRT1 (Homo sapiens, UniProt Q96EB6)" test_result="B (EC1.5 1-25 uM)"
molecule="Cc1cnc(NC(=O)c2cccc3[nH]c(-c4cccc(N5CCOCC5)c4)nc23)s1 [Compound 396]" assayed_system="SIRT1 (Homo sapiens, UniProt Q96EB6)" test_result="A (EC1.5<1.0 uM)"
molecule="O=C(Nc1cc[n+]([O-])cc1)c1cccc2[nH]c(-c3ccc(Cl)cc3C(F)(F)F)nc12 [Compound 338]" assayed_system="SIRT1 (Homo sapiens, UniProt Q96EB6)" test_result="A (EC1.5<1.0 uM)"
molecule="Cc1cnc(NC(=O)c2cccc3[nH]c(-c4ccc(Cl)cc4C(F)(F)F)nc23)s1 [Compound 346]" assayed_system="SIRT1 (Homo sapiens, UniProt Q96EB6)" test_result="A (EC1.5<1.0 uM)"

Exercise: Form field: reported EC1.5 of O=C(Nc1nccs1)c1cccc2[nH]c(-c3ccc(OCC(O)CO)cc3)nc12 (centres unmarked) [Compound 325]
Solution: A (EC1.5<1.0 uM)

Exercise: One more molecule: O=C(Nc1cccnc1)c1cccc2[nH]c(-c3cccc(CN4CCCC4)c3)nc12 [Compound 352]
Solution: B (EC1.5 1-25 uM)
